Assay: recombinant barcode read abundance after kanamycin selection (control-corrected) (log10(CPM+1)); higher = more efficient recombination; sequences stand for … in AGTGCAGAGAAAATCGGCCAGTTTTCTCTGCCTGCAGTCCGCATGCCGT…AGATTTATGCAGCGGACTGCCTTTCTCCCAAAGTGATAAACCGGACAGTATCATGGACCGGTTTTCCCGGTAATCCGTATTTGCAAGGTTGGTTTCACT; site = the 11-nt target;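 also: IS621 recombinase and bridge RNA in Escherichia coli cells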
Observed Property: recombinant barcode read abundance (log10)

// solved cases for recombinant barcode read abundance (log10) follow
[
  {
    "Ordered Residues": "TGGGACTCTTGGGTTCTAACCTGTTGCCT (site TGAGACTCTAG)",
    "Recorded Result": 2.44
  },
  {
    "Ordered Residues": "GGTATGTCTTGGGTTCTAACCTGTTGCCT (site AGTATGTCTAG)",
    "Recorded Result": 0.204
  }
]

Please go through the list and note recombinant barcode read abundance (log10) for each sequence.
1. TCGAACCCTTGGGTTCTAACCTGTTGCCT (site TCGAACCCTAG)
2. GGTATGTCTTGGGTTCTAACCTGTTGCCT (site CGTATGTCTAG)
3. CATAGTCCTTGGGTTCTAACCTGTTGCAT (site CATAGCCCTAT)
4. ACCTGACCTTGGGTTCTAACCTGTTGCGG (site CGGACTGCTAG)

Response line:
1. 0.639
2. 0.0446
3. 0.884
4. 0.12

Please go through the list and note recombinant barcode read abundance (log10) for each sequence.
1. TTGAGGACTTGGGTTCTAACCTGTTGCGT (site TTGAGGACTAC)
2. GGACCTCCTTGGGTTCTAACCTGTTGCAT (site GGACCTCCTAC)

Response line:
1. 2.22
2. 0.805

Please go through the list and note recombinant barcode read abundance (log10) for each sequence.
1. AATACCACTTGGGTTCTAACCTGTTGCCT (site AATACCACTAG)
2. GAGCCGACTTGGGTTCTAACCTGTTGCCT (site GAGCAGACTAG)
3. ACATTGTCTTGGGTTCTAACCTGTTGCGG (site ACATTGTCTCC)
4. TTGGCCTCTTGGGTTCTAACCTGTTGCCT (site GTGGCGTCTAG)
5. CGACACACTTGGGTTCTAACCTGTTGCCT (site CGCCACACTAG)
6. AGGCCCACTTGGGTTCTAACCTGTTGCTC (site AGGTCCACTCA)

Response line:
0.576
0.288
1.1
0.15
0.0974
0.166

Please go through the list and note recombinant barcode read abundance (log10) for each sequence.
1. TGAGTTCCTTGGGTTCTAACCTGTTGCTT (site TGAGTACCTAA)
2. GTTCAGACTTGGGTTCTAACCTGTTGCCT (site GTCCAGACTAG)
3. GACCGTCCTTGGGTTCTAACCTGTTGCTT (site GACCGTCCTAA)
4. GCTCCTACTTGGGTTCTAACCTGTTGCCT (site GGTCCTACTAG)
5. AGTATGTCTTGGGTTCTAACCTGTTGCCT (site CGTATGTCTAG)
6. CCACGTTCTTGGGTTCTAACCTGTTGCCT (site CCACGTTCTAG)
7. GTCGACGCTTGGGTTCTAACCTGTTGCCT (site GTCGACCCTAG)

Response line:
[0.0626, 0.948, 1.1, 0.48, 0.184, 0.181, 0.158]

Please go through the list and note recombinant barcode read abundance (log10) for each sequence.
1. TAGTATGCTTGGGTTCTAACCTGTTGCTA (site TAGTATCCTTA)
2. GAGTGTACTTGGGTTCTAACCTGTTGCAT (site GAGGGTACTAT)

Response line:
1: 0.0173; 2: 0.029

Value source: the supplement of paper PMC11208160
